The entries below are paired with their reported CB1 calcium assay Agonist screen (% CP55, 940 Emax).
Biological target: human CB1 receptor (Homo sapiens, UniProt P21554)
Construct: host or cells: CHO-RD-HGA16 cells (CHO cells overexpressing promiscuous Galpha16)
Sequence (P21554 whole entry): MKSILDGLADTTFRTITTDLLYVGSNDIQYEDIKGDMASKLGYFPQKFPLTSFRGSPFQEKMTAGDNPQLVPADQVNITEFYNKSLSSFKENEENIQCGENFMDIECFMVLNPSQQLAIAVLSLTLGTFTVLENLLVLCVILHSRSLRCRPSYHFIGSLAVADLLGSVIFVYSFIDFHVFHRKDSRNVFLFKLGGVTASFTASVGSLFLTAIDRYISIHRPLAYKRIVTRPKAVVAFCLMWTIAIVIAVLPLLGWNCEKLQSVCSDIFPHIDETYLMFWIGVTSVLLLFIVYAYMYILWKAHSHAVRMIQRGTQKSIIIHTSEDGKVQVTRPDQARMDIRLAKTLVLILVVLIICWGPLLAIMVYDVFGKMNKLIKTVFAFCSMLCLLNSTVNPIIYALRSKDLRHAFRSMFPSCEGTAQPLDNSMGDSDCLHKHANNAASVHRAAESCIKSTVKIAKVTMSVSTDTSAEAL
Experiment: CB1 calcium mobilization assay, agonist screen
Assay type: cell-based
Conditions: Table 1; 10,000 nM final concentration; mean ± SD

Problem: Return value of CB1 calcium assay Agonist screen (% CP55, 940 Emax) for input "O=C(Nc1ccc(Cl)cc1)Nc1cccc(N2CCCCC2)c1" , no commentary.
Result: 1.1 ± 0 % CP55, 940 Emax

Problem: Please look at this compound and report its CB1 calcium assay Agonist screen (% CP55, 940 Emax): "O=C(Nc1ccc(Cl)cc1)Nc1cccc(-c2cncnc2)c1"
Result: 2.5 ± 6.2 % CP55, 940 Emax

Problem: Read off the recorded CB1 calcium assay Agonist screen (% CP55, 940 Emax) for "CN1CCN(c2cccc(NC(=O)Nc3ccc(Cl)cc3)c2)CC1"
Result: 27.6 ± 2.0 % CP55, 940 Emax

Problem: For the compound "O=C(Nc1ccc(Cl)cc1)Nc1cccc(-c2ccc(C(=O)c3ccccc3)cc2)c1" , give its reported CB1 calcium assay Agonist screen (% CP55, 940 Emax).
Result: 12.9 ± 1.7 % CP55, 940 Emax

Problem: Please supply the value of reported CB1 calcium assay Agonist screen (% CP55, 940 Emax) for the item "O=C(Nc1ccc(Cl)cc1)Nc1cccc(-c2ccc(F)cc2)c1"
Result: 8.8 ± 1.1 % CP55, 940 Emax
